Organism: Rattus norvegicus
METHOD_DESCRIPTION: DrugMatrix - Regimen: Daily Repeat
Assay type: toxicity, organism-based, Sprague-Dawley
Design: regimen Daily Repeat, gender Male, age 6-8 weeks
SETTINGS: in vivo, po, 0 mg/kg, 72 h, tissue Plasma, route oral GAVAGE, dose level Control, time 3 day, […]
I would appreciate it if you labelled entries 1 (yes) when CREATINE PHOSPHOKINASE is 300 u/L or higher, otherwise 0 (no).

Please tell me: is the compound CSc1ccc2c(c1)N(CCC1CCCCN1C)c1ccccc1S2 (stereo not given) at or over 300 u/L in terms of CREATINE PHOSPHOKINASE?
0 (no)

Please tell me: is the compound CC(C)n1c(/C=C/C(O)CC(O)CC(=O)O)c(-c2ccc(F)cc2)c2ccccc21 (stereo not given) at or over 300 u/L in terms of CREATINE PHOSPHOKINASE?
1 (yes)

Please tell me: is the compound "Oc1c(Cl)cc(Cl)cc1Sc1cc(Cl)cc(Cl)c1O" at or over 300 u/L in terms of CREATINE PHOSPHOKINASE?
1 (yes)

Please tell me: is the compound CN(C)CCCC1(c2ccc(F)cc2)OCc2cc(C#N)ccc21 (stereo not given) at or over 300 u/L in terms of CREATINE PHOSPHOKINASE?
1 (yes)

Please tell me: is the compound "CC(=O)[C@H]1CC[C@H]2[C@@H]3CCC4=CC(=O)CC[C@]4(C)[C@H]3CC[C@]12C" at or over 300 u/L in terms of CREATINE PHOSPHOKINASE?
1 (yes)

Please tell me: is the compound CC(C)(Oc1ccc(CCNC(=O)c2ccc(Cl)cc2)cc1)C(=O)O [BEZAFIBRATE] at or over 300 u/L in terms of CREATINE PHOSPHOKINASE?
0 (no)

Please tell me: is the compound "CC1=C(/C=C/C(C)=C/C=C/C(C)=C\C(=O)O)C(C)(C)CCC1" at or over 300 u/L in terms of CREATINE PHOSPHOKINASE?
0 (no)

Please tell me: is the compound "c1ccc2[nH]c(-c3cscn3)nc2c1" at or over 300 u/L in terms of CREATINE PHOSPHOKINASE?
0 (no)
